# credit: PubChem BioAssay (NCI)

Tested on: MDA-MB-435
Can you answer with just one of these options? active, inactive

# lookup: test call for Cn1c(NCC(CN2CCCC2)OC(=O)c2ccccc2)cc(=O)n(C)c1=O (centres undefined)
inactive

# lookup: test call for Cc1cc(C(O)(c2ccc(Nc3ccccc3)cc2)c2ccc(Nc3ccc(S(=O)(=O)O)cc3)cc2)ccc1N (centres undefined)
inactive

# lookup: test call for "O=C1NC(=O)C(c2ccccc2)=C1Nc1ccccc1"
inactive

---

Test system: TK-10 renal
Assay: NCI tumour cell line growth inhibition, 48 h
Can you tell me TGI for the items I'm about to list?

Please review the entries below; each comes with its answer.
[[record]]
compound = "Cc1cc(C(O)(c2ccc(Nc3ccccc3)cc2)c2ccc(Nc3ccc(S(=O)(=O)O)cc3)cc2)ccc1N (stereo unspecified)"
reading = "3.77 µM"

[[record]]
compound = "COC(=O)CC(CNC(=O)OCc1ccccc1)OCc1ccc(OC)cc1 (stereo unspecified)"
reading = "> 100 µM"


Hello, I would appreciate it if you could give TGI for each entry below.
1. O=C(c1cccs1)c1nc2cc(Cl)ccc2[n+]([O-])c1C(F)(F)F
2. Cc1cccc2c1c(=O)c1c(O)cc3c(c1n2C)C=CC(C)(C)O3
3. COc1cc2c(cc1OCCCCn1c(-c3cccs3)nc3ccccc31)N=C[C@@H]1CCCN1C2=O
4. CCOC(=O)/C(=C/c1ccccc1Br)P(=O)(OCC)OCC
5. S=C(Nc1ccc2c(c1)oc1ccccc12)c1cccs1

> 100 µM
> 100 µM
6.74 µM
7.98 µM
> 100 µM

Hello, I would appreciate it if you could give TGI for each entry below.
1. O=C(Oc1c(Br)cc(Br)cc1C(=O)Oc1ccccc1)C(=O)Oc1c(Br)cc(Br)cc1C(=O)Oc1ccccc1
2. O=C1C(=C([O-])c2ccccc2)C(=O)c2ccccc21.O=C1C(=C([O-])c2ccccc2)C(=O)c2ccccc21.[Co+2]
3. Cc1cc(C)nc(NCCC(O)(P(=O)(O)O)P(=O)(O)O)n1

["> 100 µM", "> 100 µM", "> 100 µM"]

Hello, I would appreciate it if you could give TGI for each entry below.
1. O=C1Nc2ccccc2/C1=C\c1c(-c2ccccc2)nc2n1CCS2
2. O=C(/C=C/c1ccc(O)c(O)c1)NC(COC(=O)/C=C/c1ccc(O)c(O)c1)C(=O)O (stereo unspecified)
3. CC(=O)N(CCN1C(=O)c2ccccc2C1=O)CCN1C(=O)c2ccccc2C1=O
4. NC(=N\N=C/c1ccc(Cl)cc1Cl)/C(N)=N\N=C/c1ccc(Cl)cc1Cl
5. CCP(=O)(CC)C(Cl)(Cl)C(O)C(Cl)(Cl)Cl (stereo unspecified)
6. Fc1ccc(C2SCc3nc4ccccc4n32)cc1F (stereo unspecified)
7. CCCCCCCCCCCCCCCC(=O)Nc1ccn(C2CCC(COP(=O)(O)OCC3OC(n4cc(F)c(=O)[nH]c4=O)CC3OC(C)=O)O2)c(=O)n1 (stereo unspecified)

1. 34.3 µM
2. > 100 µM
3. > 100 µM
4. 16.7 µM
5. > 100 µM
6. 82.3 µM
7. > 76.7 µM

Hello, I would appreciate it if you could give TGI for each entry below.
1. CCOC(=O)Nc1n[nH]nc1Cl
2. O=C1CCN2C(=N1)Sc1ccccc12
3. COc1cc2c(cc1O)Cc1c-2[n+](C)cc2cc(OC)c(OC)cc12
4. CCN(CC)C(=S)N/N=C/c1cc(OC)ccc1O

["> 100 µM", "> 100 µM", "> 100 µM", "> 100 µM"]
